- Test system: F1*sub RNA substrate (template-directed ligation)
- Experimental protocol: fraction ligated after 30 min (ligated reads / total reads); higher = more ligase activity; sequences stand for … in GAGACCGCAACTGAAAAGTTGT…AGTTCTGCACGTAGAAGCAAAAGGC
- Study conditions: 42 °C
Reported endpoint: fraction ligated
Just the number.

# lookup: F1*sub RNA substrate (template-directed ligation) fraction ligated, key = TACACTTGTCGTAAACACTTTGGAGGGTTGA [3d678]
0.0486

# lookup: F1*sub RNA substrate (template-directed ligation) fraction ligated, key = TATCCTTGTGTAGACACTTTGGATGGGTTGA [3d1002]
0.808

# lookup: F1*sub RNA substrate (template-directed ligation) fraction ligated, key = TTCACTTGTCGTAAGACACTTTGGATGGTTG [3d505]
0.681
